- System: tetA promoter (PtetA)-lacZ reporter in E. coli KM3
- Format: cell-based
- protocol-conditions: Table 6, reverse repressor hits; chlorsulfuron, same plate assay format as Table 4
quantity: relative β-galactosidase activity, inducer Cs
Write no unit; give the number alone.

Worked examples, 2 molecules total:
molecule="L1-33: library L1 reverse repressor hit (SEQ ID NO: 1206-1213) (protein, rSuR L1-33) MGSRLDKSKVINSALELLNEVGIEGLTTRKLAQKLGVEQPTLYWHVKNKRALLDALAIEMLDRHATHFCPLEGESWQDFLRNNAKSMRCALLSHRDGAKVQLGTAATEKQYETLENKLAFLCQQGFSLENALYAHSAVTQFTLGCVLRDQEGQVAKEERETPTTDSMPPLLRQARELRDHQGAEPAFLFGLELIICGLEKQLKCESGS" obs_value=3.74
molecule="L1-34: library L1 reverse repressor hit (SEQ ID NO: 1206-1213) (protein, rSuR L1-34) MGSRLDKSKVINSALELLNEVGIEGLTTRKLAQKLGVEQPTLYWHVKNKRALLDALAIEMADRHNTHFCPLEGESWQDFLRNAARSMRCALLSHRDGAKVYLGTARTEKQYETTENVLAFLCQQGFSLENALYAVRAVPRFTLGCVLLDQERQVAKEERETPTTDSMPPLLRQARELTDHQGAEPAFLFGLELIICGLEKQLKCESGS" obs_value=0.85

Continue with the molecule presented below.
// query relative β-galactosidase activity, inducer Cs value for entry L1-41: library L1 reverse repressor hit (SEQ ID NO: 1206-1213) (protein, rSuR L1-41) MGSRLDKSKVINSALELLNEVGIEGLTTRKLAQKLGVEQPTLYWHVKNKRALLDALAIEMLDRNQTHFCPLEGESWQDFLRNNAKSWRCALLSHRDGAKVMLGTRNTEKQYETAENGLAFLCQQGFSLENALYACRAVWTFTLGCVLDDQETQVAKEERETPTSDSMPPLLRQAMELKDHQGAEPAFLFGLELIICGLEKQLKCESGS
// result 0.61

Just for reference, patent US8580556B2 is where these values come from.
